- measurement protocol: Tested for its binding effect on [3H]- DAMGO in bovine striatal membrane at 20 nM
- Assay type: functional, cell membranes, Bos taurus, Striatum
readout kind: Kd

Find the recorded Kd belonging to C[C@@]12Oc3c(O)ccc4c3C13CCN(CC1CC1)C(C4)[C@]3(NC(=O)/C=C/c1ccc([N+](=O)[O-])cc1)CCC2=O (stereo partly specified) and report it.
0.82 nM
